B1: VH:VL chains; a variant is named by its letters at X, in order (parent)
chain 1: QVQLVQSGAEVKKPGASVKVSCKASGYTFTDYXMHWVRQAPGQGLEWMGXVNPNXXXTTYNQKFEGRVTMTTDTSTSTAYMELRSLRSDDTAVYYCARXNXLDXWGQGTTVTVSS
chain 2: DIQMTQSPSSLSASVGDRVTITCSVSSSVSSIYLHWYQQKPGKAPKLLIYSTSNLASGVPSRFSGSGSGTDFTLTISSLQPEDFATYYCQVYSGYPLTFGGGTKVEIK

Variants of: B1
Test: yeast display scFab, FACS + sequencing
assayEndpoint: non-specific binding call

{"variantAnnotation": "YRGGGYLV", "recordedMeasurement": "no binding"}
{"variantAnnotation": "VRAGGDAA", "recordedMeasurement": "no binding"}
{"variantAnnotation": "VKGRAAVA", "recordedMeasurement": "no binding"}
{"variantAnnotation": "FAGGGDGA", "recordedMeasurement": "no binding"}
{"variantAnnotation": "FRGRGSSD", "recordedMeasurement": "binds"}
{"variantAnnotation": "FRGRGAVY", "recordedMeasurement": "binds"}
{"variantAnnotation": "YARADAAA", "recordedMeasurement": "no binding"}
{"variantAnnotation": "YRRKGAAY", "recordedMeasurement": "binds"}
{"variantAnnotation": "FRGKGSWD", "recordedMeasurement": "binds"}
{"variantAnnotation": "YRTGDSAA", "recordedMeasurement": "binds"}
{"variantAnnotation": "YRRGSFAA", "recordedMeasurement": "binds"}
{"variantAnnotation": "YKGEGDLA", "recordedMeasurement": "no binding"}
{"variantAnnotation": "YKGGSAGY", "recordedMeasurement": "binds"}
{"variantAnnotation": "YRARSAGY", "recordedMeasurement": "binds"}
{"variantAnnotation": "VEGGADVF", "recordedMeasurement": "no binding"}
{"variantAnnotation": "YKGRGVVV", "recordedMeasurement": "binds"}
{"variantAnnotation": "VKEKGAWS", "recordedMeasurement": "no binding"}
{"variantAnnotation": "VETEGSSV", "recordedMeasurement": "no binding"}
{"variantAnnotation": "YRARGSAV", "recordedMeasurement": "binds"}
{"variantAnnotation": "YRGEGDAA", "recordedMeasurement": "no binding"}
{"variantAnnotation": "VAGTDAGA", "recordedMeasurement": "no binding"}
{"variantAnnotation": "SEGTGSSV", "recordedMeasurement": "no binding"}
